Where do these numbers come from? They come from the supplement of paper PMC10627819.

- Tested on: S. pneumoniae D39V;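 further: first quartile when negative (synergy) and third quartile when positive (antagonism)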
- PROTOCOL SUMMARY: Bliss interaction score (quartile over a dose matrix) (fitness difference); higher = more antagonism (negative = synergy)
- CONDITION DESCRIPTION: main component drawn
ASSAY READOUT: Bliss interaction score

- CNC(C)C1CCC(N)C(OC2C(N)CC(N)C(OC3OCC(C)(O)C(NC)C3O)C2O)O1 (stereo not drawn) [Gentamicin] + COc1c(N2C[C@@H]3CCCN[C@@H]3C2)c(F)cc2c(=O)c(C(=O)O)cn(C3CC3)c12 [Moxifloxacin]: -0.0566
- CNC(C)C1CCC(N)C(OC2C(N)CC(N)C(OC3OCC(C)(O)C(NC)C3O)C2O)O1 (stereo not drawn) [Gentamicin] + CN(C)c1cc(NC(=O)CNC(C)(C)C)c(O)c2c1C[C@H]1C[C@H]3[C@H](N(C)C)C(O)=C(C(N)=O)C(=O)[C@@]3(O)C(O)=C1C2=O [Tigecycline]: 0.0631
- CNC(C)C1CCC(N)C(OC2C(N)CC(N)C(OC3OCC(C)(O)C(NC)C3O)C2O)O1 (stereo not drawn) [Gentamicin] + CC[C@H]1OC(=O)[C@H](C)C(=O)[C@H](C)[C@@H](O[C@@H]2O[C@H](C)C[C@H](N(C)C)[C@H]2O)[C@](C)(OC)C[C@@H](C)C(=O)[C@H](C)[C@H]2N(CCCCn3cnc(-c4cccnc4)c3)C(=O)O[C@]12C [Telithromycin]: 0.0542
